Value source: patent US20250368745A1

Target: T1, human IL-18BP (human, UniProt O95998 31-194)
T1 construct: UniProt printed as 095998; also called hIL-18BP
T1 sequence: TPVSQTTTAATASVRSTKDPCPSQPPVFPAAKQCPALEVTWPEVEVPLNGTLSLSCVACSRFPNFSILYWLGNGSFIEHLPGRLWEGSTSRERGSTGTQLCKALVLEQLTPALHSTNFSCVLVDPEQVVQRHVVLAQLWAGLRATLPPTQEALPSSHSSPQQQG
Assay: BLI, apparent KD
pKd: −log10 of the molar value.
parameter: pKd

binder: SA301a HC-Y100L (antibody, V domains shown) VH: QVQLQESGPGLVKPSQTLSLTCTVSGYSITSDYNSHWIRQPPGKGLEWIGYIHYSGSTNYNPSLKSRVTISRDTSKNQFSLKLSSVTAADTAVYYCARNYGSILVNYFDYWGQGTLVTVSS VL: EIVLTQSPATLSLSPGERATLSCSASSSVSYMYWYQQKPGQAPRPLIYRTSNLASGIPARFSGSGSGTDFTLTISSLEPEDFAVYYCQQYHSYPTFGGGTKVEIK
observedResult: 8.97

binder: SA301a HC-Y100V (antibody, V domains shown) VH: QVQLQESGPGLVKPSQTLSLTCTVSGYSITSDYNSHWIRQPPGKGLEWIGYIHYSGSTNYNPSLKSRVTISRDTSKNQFSLKLSSVTAADTAVYYCARNYGSIVVNYFDYWGQGTLVTVSS VL: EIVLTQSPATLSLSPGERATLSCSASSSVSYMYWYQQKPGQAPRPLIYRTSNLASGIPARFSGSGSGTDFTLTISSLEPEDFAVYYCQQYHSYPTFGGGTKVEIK
observedResult: 8.80

binder: SA301a HC-V100aS (antibody, name in Kabat numbering, V domains shown, IgG1 kappa) VH: QVQLQESGPGLVKPSQTLSLTCTVSGYSITSDYNSHWIRQPPGKGLEWIGYIHYSGSTNYNPSLKSRVTISRDTSKNQFSLKLSSVTAADTAVYYCARNYGSIYSNYFDYWGQGTLVTVSS VL: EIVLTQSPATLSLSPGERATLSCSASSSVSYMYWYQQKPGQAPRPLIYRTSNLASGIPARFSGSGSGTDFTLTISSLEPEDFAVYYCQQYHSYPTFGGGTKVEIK
observedResult: 9.55
